experimental context: in methyl acetate, 308.15 K
experimental readout: solubility (mole fraction)
Answer with the value's number alone.

Which solubility (mole fraction) is reported for this compound? O=C(/C=C/c1ccc(O)c(O)c1)O[C@H](Cc1ccc(O)c(O)c1)C(=O)O
0.0619

###

experimental context: in methyl acetate, 293.15 K
experimental readout: solubility (mole fraction)
# answer = number (no unit)

Endpoint output: solubility (mole fraction) of O=C(/C=C/c1ccc(O)c(O)c1)O[C@H](Cc1ccc(O)c(O)c1)C(=O)O . Value?
0.0363

###

experimental context: in ethyl acetate, 313.15 K
experimental readout: solubility (mole fraction)

Given the entry O=C(/C=C/c1ccc(O)c(O)c1)O[C@H](Cc1ccc(O)c(O)c1)C(=O)O , report its measured solubility (mole fraction).
0.0722

###

experimental context: in ethyl acetate, 308.15 K
experimental readout: solubility (mole fraction)
Reply with the value as a number alone.

Would you kindly share the measured solubility (mole fraction) for O=C(/C=C/c1ccc(O)c(O)c1)O[C@H](Cc1ccc(O)c(O)c1)C(=O)O ?
0.0588

###

experimental context: in methyl acetate, 313.15 K
experimental readout: solubility (mole fraction)
Number, no unit, nothing else.

Name the recorded solubility (mole fraction) for O=C(/C=C/c1ccc(O)c(O)c1)O[C@H](Cc1ccc(O)c(O)c1)C(=O)O .
0.0764

###

experimental context: in methyl acetate, 298.15 K
experimental readout: solubility (mole fraction)
Number, no unit, nothing else.

Which solubility (mole fraction) reading was recorded for the molecule O=C(/C=C/c1ccc(O)c(O)c1)O[C@H](Cc1ccc(O)c(O)c1)C(=O)O ?
0.049

###

experimental context: in ethyl acetate, 303.15 K
experimental readout: solubility (mole fraction)
// print number alone

Would you mind telling me what solubility (mole fraction) value was observed for O=C(/C=C/c1ccc(O)c(O)c1)O[C@H](Cc1ccc(O)c(O)c1)C(=O)O ?
0.0506
